procedure summary: gradient 5% acetonitrile 3 min, to 50% in 2 min, to 85% in 15 min, held 3 min, 100 µL/min
assay context: column: Zorbax Extend-C18 2.1 x 50 mm; eluents: water / acetonitrile, 0.1% formic acid
measured quantity: RP-LC retention time (s)

Below, 6 compounds whose answers are already recorded.
Fc1ccc(-c2nnc(-c3ccc(-n4ccnc4)nc3)o2)cc1: 648
CC(C)c1nccn1C1CN(C(=O)COc2ccc(F)cc2)C1: 573
Cc1ccc(NC(=O)C2(C)Oc3cccnc3N(C)C2=O)c(C)c1 (configuration not stated): 816
CCN(CC)S(=O)(=O)c1ccc2c(c1)cc(C(=O)NCCc1c[nH]c3ccc(OC)cc13)n2C: 964
N#Cc1ccc(NC(=O)C(=O)c2ccc[nH]2)cc1: 801
Cc1cc2[nH]c(C(=O)NCc3ccc(F)cc3)c(CN3CCOCC3)c2s1: 689

[I] CCSc1nnc(-c2nn(C)c3c2CN(C(=O)c2cccc(Cl)c2)CC3)n1C
[II] CCOc1cc(C(=O)Nc2ccc(F)cc2F)nc2c(F)cccc12
Q) Which entry shows the lesser value of RP-LC retention time here, I or II ? Indicate which entry you chose by stating its label.
A) I
(I: 788 s, II: 1350 s)

* * *

procedure summary: gradient 5% acetonitrile 3 min, to 50% in 2 min, to 85% in 15 min, held 3 min, 100 µL/min
assay context: column: Zorbax Extend-C18 2.1 x 50 mm; eluents: water / acetonitrile, 0.1% formic acid
measured quantity: RP-LC retention time (s)

Below, 3 compounds whose answers are already recorded.
CCCn1c(CCNC(=O)c2cccc(F)c2)nc2cccnc21: 644
COc1ccc(NC(=O)c2ccc(-c3ccc(-c4noc(C)n4)cc3C)cc2)cc1N1CCN(C)CC1: 812
CC(C)CCNC(=O)C1CCN(c2cncnc2N(C)C)CC1: 564

[A] CCC(=O)Nc1ccc(CCc2nc3ccc(C(=O)NCc4ccc5c(c4)OCO5)cc3[nH]2)cc1
[B] COCCN1C(=O)c2ccccc2C(C(=O)NCc2ccccc2OC)C1c1ccc(F)cc1 (configuration not stated)
Q) Of the two listed items, A and B , which carries the larger RP-LC retention time figure? Indicate which entry you chose by stating its label.
A) B

* * *

procedure summary: gradient 5% acetonitrile 3 min, to 50% in 2 min, to 85% in 15 min, held 3 min, 100 µL/min
assay context: column: Zorbax Extend-C18 2.1 x 50 mm; eluents: water / acetonitrile, 0.1% formic acid
measured quantity: RP-LC retention time (s)

Below, 4 molecules whose answers are already recorded.
CC(C)n1c(N2CCN(C(=O)Cc3c[nH]c4ccccc34)CC2)cc(=O)n(C(C)C)c1=O: 824
COC(=O)c1c(C)c(C(=O)C(C)N(C(=O)c2ccccc2Cl)C(C)C)c(C)n1C (stereo not given): 975
O=C(c1cccc(F)c1)N1CCC2(CC1)N=C(c1ccc(Cl)cc1)NO2: 800
COc1ccc2c(c1)CCc1sc(NC(=O)c3ccccc3F)nc1-2: 1090

[P] COc1ccccc1-c1nc(Cc2noc(Cc3ccc(F)cc3)n2)c(C)o1
[Q] CCc1ccc(NC(=O)c2cn3c(n2)CCCC3)cc1
Q) Which entry shows the lesser value of RP-LC retention time here, P or Q ? Indicate which entry you chose by stating its label.
A) Q
(Q: 644 s, P: 1000 s)

[A] CCCCN1N=C(C(=O)N2CCC(C)CC2)S(=O)(=O)c2ccc(C)cc21
[B] CCCC(NC(=O)c1cccc(Cl)c1)C(=O)Nc1nc2ccccc2[nH]1 (stereo not given)
Q) Which entry shows the lesser value of RP-LC retention time here, A or B ? Indicate which entry you chose by stating its label.
A) B
(B: 742 s, A: 1060 s)

[P] CC1=C(c2ccccc2)S(=O)(=O)N=C1N1CCCN(C(=O)NCc2ccccc2)CC1
[Q] CCN1CCN(CCNC(=O)C2CCCN(S(=O)(=O)N(C)c3ccc(F)cc3)C2)CC1 (stereo not given)
Q) Which entry shows the lesser value of RP-LC retention time here, P or Q ? Indicate which entry you chose by stating its label.
A) Q

* * *

procedure summary: gradient 5% acetonitrile 3 min, to 50% in 2 min, to 85% in 15 min, held 3 min, 100 µL/min
assay context: column: Zorbax Extend-C18 2.1 x 50 mm; eluents: water / acetonitrile, 0.1% formic acid
measured quantity: RP-LC retention time (s)

Cc1ccc(Cn2c(N3CCCC(C(=O)NCCC(C)C)C3)nc3ccsc3c2=O)cc1 (stereo not drawn): 1030
Cc1ccc(CN(Cc2ccc(-c3ccccc3S(=O)(=O)NC#N)cc2)C(=O)c2ccccc2Cl)cc1: 1060
Cc1cc(-c2nn3c(COc4ccc(Cl)cc4)nnc3s2)no1: 948

[a] Cn1ncc2c3ccccc3n(CCCC(=O)NCCCN3CCOCC3)c2c1=O
[b] N#CC(c1ccc(Cl)cc1)c1c(Cl)cc(N2NCC(=O)NC2=O)cc1Cl (stereo not drawn)
Q) Which entry shows the lesser value of RP-LC retention time here, a or b ? Indicate which entry you chose by stating its label.
A) a
(a: 593 s, b: 1020 s)

* * *

procedure summary: gradient 5% acetonitrile 3 min, to 50% in 2 min, to 85% in 15 min, held 3 min, 100 µL/min
assay context: column: Zorbax Extend-C18 2.1 x 50 mm; eluents: water / acetonitrile, 0.1% formic acid
measured quantity: RP-LC retention time (s)

Cc1ccc(NC(=O)N2CCCC(Cn3cnc4cccnc43)C2)c(Cl)c1 (stereo not given): 682
CCN(CC)S(=O)(=O)c1ccc2c(c1)N(CC(=O)NCCc1ccccc1)C(=O)C1CCCCN21 (stereo not given): 1000
O=c1ccc(-c2nc(-c3ccncc3)no2)nn1Cc1ccc(Cl)cc1: 909
CCN(CC)CCNC(=O)CSCc1ccc(C)cc1: 631
Cc1cc(C)cc(NC(=O)Cn2c(N3CCC(C)CC3)nc(C)cc2=O)c1: 796

* * *

procedure summary: gradient 5% acetonitrile 3 min, to 50% in 2 min, to 85% in 15 min, held 3 min, 100 µL/min
assay context: column: Zorbax Extend-C18 2.1 x 50 mm; eluents: water / acetonitrile, 0.1% formic acid
measured quantity: RP-LC retention time (s)

Cc1cc(C(=O)Nc2nnc(Cc3ccc4c(c3)OCO4)o2)c(C)o1: 722
COC(=O)c1ccc(CSc2nnc(C(C)C)c3cnn(-c4ccc(F)cc4)c23)o1: 840
CCC(C)Nc1nc(N(C)C)nc(-n2cnc(SC)n2)n1 (centres undefined): 942
CCOCc1nc(C2CCCN(C(=O)NC3CCCC3)C2)no1 (centres undefined): 766

* * *

procedure summary: gradient 5% acetonitrile 3 min, to 50% in 2 min, to 85% in 15 min, held 3 min, 100 µL/min
assay context: column: Zorbax Extend-C18 2.1 x 50 mm; eluents: water / acetonitrile, 0.1% formic acid
measured quantity: RP-LC retention time (s)

O=C(Nc1ccccc1C(=O)NCCC1=CCCCC1)C1=CSCCO1: 1090
COc1ccccc1N1CCN(c2cc(SCC(=O)NCc3ccc(SC)cc3)ncn2)CC1: 929
O=C(Cc1ccccc1Cl)N1CCC2(CC1)N=C(c1ccccc1)NO2: 841
COc1ccc(C2Cn3cnc(C(=O)N4CCC(C(=O)NC5CCCCCC5)CC4)c3CO2)cc1 (stereo not given): 797
O=C(c1ccc2c(c1)OCO2)N1CC(F)(F)C[C@H]1COc1ccncc1: 615
CCc1cc(=O)n(Cc2ncc(C)c(OC)c2C)c(N2CCCC2)n1: 554
Cc1cc(C)c(S(=O)(=O)NCCn2c(C)cnc2C2CCC2)cc1C: 696
Cc1ccc2[nH]cc(CCNC(=O)CS(=O)Cc3cnn(-c4ccccc4)c3-n3cccc3)c2c1 (stereo not given): 875

[a] Cc1ccn2cc(C(=O)NCc3ccccc3Cl)nc2c1
[b] CCOC(=O)c1nnn(-c2ccccc2OCC)c1C(=O)OCC
Q) Of the two listed items, a and b , which carries the larger RP-LC retention time figure? Indicate which entry you chose by stating its label.
A) b
(b: 970 s, a: 675 s)

[1] O=C(NCCc1csc(-c2cccs2)n1)C1CCN(S(=O)(=O)c2ccc(F)cc2)CC1
[2] Cn1cc(CN2CCC(C(=O)NCCCN3CCOCC3)CC2)c2cc(Cl)ccc21
Q) Which entry shows the lesser value of RP-LC retention time here, 1 or 2 ? Indicate which entry you chose by stating its label.
A) 2

* * *

procedure summary: gradient 5% acetonitrile 3 min, to 50% in 2 min, to 85% in 15 min, held 3 min, 100 µL/min
assay context: column: Zorbax Extend-C18 2.1 x 50 mm; eluents: water / acetonitrile, 0.1% formic acid
measured quantity: RP-LC retention time (s)

COc1cc(NC(=O)N2CCC(n3c(C)nc4cccnc43)CC2)cc(OC)c1OC: 569
CCCN1C(=O)c2ccccc2Sc2cc(-c3noc(CNC(=O)c4ccco4)n3)ccc21: 911
Cc1noc(C)c1CCNC(=O)CCCn1c2ccccc2c2cnn(C)c(=O)c21: 713
CN1CCCc2cc(C(CNC(=O)C(=O)Nc3ccc4c(c3)OCCO4)N3CCCCC3)ccc21 (centres undefined): 742
Cc1nc2cc(-c3noc(-c4c(F)cccc4Cl)n3)ccc2o1: 1100
O=C(Cn1nc(C2CC2)cc1C(=O)N1CCCC1)Nc1ccccc1Cl: 815
COc1ccc(S(=O)(=O)N2CCC(c3noc(-c4ccccn4)n3)C2)cc1 (centres undefined): 802
Cc1ccc(Cl)cc1NC(=O)Cn1ncc2c(c1=O)N(CC1CC1)C(=O)CS2: 860

[1] Cc1ccccc1CC(=O)Nc1cc(-c2nnc(C3CC3)o2)sc1C
[2] CCc1ccc(-c2csc(Nc3ccc(S(=O)(=O)Nc4nc(C)cc(C)n4)cc3)n2)cc1
Q) Of the two listed items, 1 and 2 , which carries the larger RP-LC retention time figure? Indicate which entry you chose by stating its label.
A) 2

[A] COc1ccccc1OCCNC(=O)c1ccc2[nH]c3c(c2c1)CN(C(C)=O)CC3
[B] Clc1ccccc1-c1noc(Cc2nnc(-c3ccccc3)o2)n1
Q) Of the two listed items, A and B , which carries the larger RP-LC retention time figure? Indicate which entry you chose by stating its label.
A) B
(B: 978 s, A: 680 s)

[I] Cc1cccc(Nc2nc(C)c(C(=O)NC3CCN(Cc4ccccc4)CC3)s2)n1
[II] COCC(=O)N1CCc2c([nH]c3ccccc23)C1c1ccc(C)cc1 (centres undefined)
Q) Of the two listed items, I and II , which carries the larger RP-LC retention time figure? Indicate which entry you chose by stating its label.
A) II
